GI50 by entry:
Tested on: UO-31
Experiment: NCI tumour cell line growth inhibition, 48 h
Active and inactive are the calls of the source. Rule as the data show it: active = GI50 up to about 1.1 µM and inactive = higher.

Example results:
structure_as_smiles=COc1ccc2cccc(C(=O)c3ccc(C)c4c3CCC4)c2c1 experimental_system=UO-31 measured_value="30.2 µM (inactive)"
structure_as_smiles=O=C(Nc1ccccc1C(=O)NCc1ccccc1)/C(=C/c1ccccc1)NC(=O)c1ccccc1 experimental_system=UO-31 measured_value="> 100 µM (inactive)"
structure_as_smiles=CCc1cccc(=O)c([O-])c1.CCc1cccc(=O)c([O-])c1.[Bi+3].[Cl-] experimental_system=UO-31 measured_value="10 µM (inactive)"
structure_as_smiles=COc1ccc(-c2nc(-c3cc4ccccc4oc3=O)cs2)cc1 experimental_system=UO-31 measured_value="35.7 µM (inactive)"

Let us move to another entry and its GI50.
Returns the measured GI50 for the input compound. Input: O=C1OC(c2ccccc2)=N/C1=C\c1ccc(F)cc1
> 100 µM (inactive)
